The following compounds are shown together with reported pest or weed control at 500 ppm values.
# Tested on: Uromyces appendiculatus
# ASSAY OVERVIEW: In vivo preventive test on Uromyces appendiculatus (bean rust), Examples G and R7
# CONDITIONS: 264 h, 500 ppm of active ingredient, bean, preventive spray, evaluated 11 days after inoculation, read-out: efficacy

GET /values?readout=pest or weed control at 500 ppm&item= Cc1ccccc1CC(O)(Cn1cncc1C#N)C1(Cl)CC1 (centres unmarked) [Example I-54]
90 to 100%

GET /values?readout=pest or weed control at 500 ppm&item= CC(C)C(O)(Cc1cccc(F)c1F)Cn1cncc1C#N (centres unmarked) [Example I-149]
90 to 100%

GET /values?readout=pest or weed control at 500 ppm&item= OC(Cn1cncc1Cl)(C(F)c1ccccc1Cl)C1(Cl)CC1 (centres unmarked) [Example I-05]
90 to 100%

GET /values?readout=pest or weed control at 500 ppm&item= Cc1cncn1CC(O)(Cc1cccnc1Cl)C1(Cl)CC1 (centres unmarked) [Example I-10]
90 to 100%

Continuing:
GET /values?readout=pest or weed control at 500 ppm&item= N#Cc1cncn1CC(O)(Cc1ccccc1)C1(Cl)CC1 (centres unmarked) [Example I-65]
90 to 100%

GET /values?readout=pest or weed control at 500 ppm&item= CC(C)C(O)(Cc1ccc(Cl)cc1F)Cn1cncc1C#N (centres unmarked) [Example I-118]
90 to 100%

GET /values?readout=pest or weed control at 500 ppm&item= Cc1cccc(CC(O)(Cn2cncc2C#N)C2(Cl)CC2)c1 (centres unmarked) [Example I-59]
90 to 100%

GET /values?readout=pest or weed control at 500 ppm&item= OC(Cc1ccccc1Cl)(Cn1cncc1Br)C1(Cl)CC1 (centres unmarked) [Example I-04]
90 to 100%

GET /values?readout=pest or weed control at 500 ppm&item= OC(Cc1ccccc1F)(Cn1cncc1Cl)C1(Cl)CC1 (centres unmarked) [Example I-32]
90 to 100%

// provenance: patent US10231453B2
